Species on record: Rattus norvegicus
measurement_protocol: Open TG-GATES - Regimen: Single
Type: toxicity, organism-based, Sprague-Dawley
Parameters: regimen Single, gender Male, age 6 weeks
particulars: in vivo, po, 100 mg/kg, 3 h, tissue Plasma, route gavage, dose level High
measured_quantity: gamma-GTP
Write down the value, and be sure its unit follows.

**Q:** # gamma-GTP lookup, item CN(C)CCCN1c2ccccc2CCc2ccc(Cl)cc21 [CLOMIPRAMINE]
**A:** 1 IU/L

**Q:** Same question for CC1=C(/C=C/C(C)=C/C=C/C(C)=C/CO)C(C)(C)CCC1 [RETINOL] please.
**A:** 1.6 IU/L

**Q:** Record: CN(C)CCCN1c2ccccc2CCc2ccccc21 [IMIPRAMINE]
**A:** 1.2 IU/L

**Q:** What do you have for CN(C)CCN(Cc1cccs1)c1ccccn1 ?
**A:** 1 IU/L

* * *

Please provide measured Hb for the entries that follow.
Organism: Rattus norvegicus
measurement_protocol: Open TG-GATES - Regimen: Single
Assay type: toxicity, organism-based, Sprague-Dawley
Set-up: regimen Single, gender Male, age 6 weeks
particulars: in vivo, po, 0 mg/kg, 24 h, tissue Blood, route gavage, dose level Control
Note: unit g/dL is implicit; provide only the numeric part.

**Q:** Need Hb, item CN(C)CCCN1c2ccccc2CCc2ccc(Cl)cc21
**A:** 13.5

**Q:** Check CN1C(=O)CN=C(c2ccccc2)c2cc(Cl)ccc21 too.
**A:** 13.7

**Q:** Entry C[C@@H]1C[C@H]2[C@@H]3CCC4=CC(=O)C=C[C@]4(C)[C@@]3(F)[C@@H](O)C[C@]2(C)[C@@]1(O)C(=O)CO please
**A:** 13.2

**Q:** Repeat with O=C(CCCN1CCC(O)(c2ccc(Cl)cc2)CC1)c1ccc(F)cc1
**A:** 13.3

**Q:** Same lookup for CC1=C(/C=C/C(C)=C/C=C/C(C)=C/CO)C(C)(C)CCC1 , please.
**A:** 13.1

**Q:** Moving on to the next compound: CCOC(=O)CCC(=O)O[C@H]1[C@H](O[C@@H]2[C@@H](C)[C@H](O[C@H]3C[C@@](C)(OC)[C@@H](O)[C@H](C)O3)[C@@H](C)C(=O)O[C@H](CC)[C@@](C)(O)[C@H](O)[C@@H](C)C(=O)[C@H](C)C[C@@]2(C)O)O[C@H](C)C[C@@H]1N(C)C [ERYTHROMYCIN ETHYLSUCCINATE]
**A:** 13.5

* * *

Organism: Rattus norvegicus
measurement_protocol: Open TG-GATES - Regimen: Single
Assay type: toxicity, organism-based, Sprague-Dawley
Design: regimen Single, gender Male, age 6 weeks
particulars: in vivo, po, 30 mg/kg, 3 h, route gavage, dose level Middle
measured_quantity: TERMINAL_BW (g)
Answer in g, number only, no unit symbol.

**Q:** Given the compound CN(C)CCCN1c2ccccc2CCc2ccc(Cl)cc21 , what is its reported TERMINAL_BW?
**A:** 217.9

**Q:** Could you do the same for CN(C)CCN(Cc1cccs1)c1ccccn1 , please?
**A:** 182

**Q:** Same question for CN(C)CCCN1c2ccccc2CCc2ccccc21 please.
**A:** 202.2

**Q:** Continue with CC1=C(/C=C/C(C)=C/C=C/C(C)=C/CO)C(C)(C)CCC1
**A:** 204

* * *

I'd be grateful if you could share measured IP for these entries.
Organism: Rattus norvegicus
measurement_protocol: Open TG-GATES - Regimen: Single
Format: toxicity, organism-based, Sprague-Dawley
Parameters: regimen Single, gender Male, age 6 weeks
particulars: in vivo, po, 100 mg/kg, 9 h, tissue Plasma, route gavage, dose level Low

**Q:** # lookup: IP of CCOC(=O)CCC(=O)O[C@H]1[C@H](O[C@@H]2[C@@H](C)[C@H](O[C@H]3C[C@@](C)(OC)[C@@H](O)[C@H](C)O3)[C@@H](C)C(=O)O[C@H](CC)[C@@](C)(O)[C@H](O)[C@@H](C)C(=O)[C@H](C)C[C@@]2(C)O)O[C@H](C)C[C@@H]1N(C)C [ERYTHROMYCIN ETHYLSUCCINATE]
**A:** 9.5 mg/dL

**Q:** Quick one: COc1ccc2[nH]c([S+]([O-])Cc3ncc(C)c(OC)c3C)nc2c1 (centres undefined)
**A:** 10.1 mg/dL

**Q:** Similarly, NC(N)=Nc1nc(CSCCC(N)=NS(N)(=O)=O)cs1 ?
**A:** 8.8 mg/dL

**Q:** One more compound: COC1=CC(=O)C[C@@H](C)[C@]12Oc1c(Cl)c(OC)cc(OC)c1C2=O
**A:** 10.3 mg/dL

* * *

Consider the following compounds; for each one, report its AST.
Species: Rattus norvegicus
measurement_protocol: Open TG-GATES - Regimen: Single
Assay type: toxicity, organism-based, Sprague-Dawley
Set-up: regimen Single, gender Male, age 6 weeks
particulars: in vivo, po, 0 mg/kg, 24 h, tissue Plasma, route gavage, dose level Control
Please respond with the number in IU/L and leave the unit unwritten.

**Q:** What value of measured AST is listed for COc1cc2c(c(OC)c1OC)-c1ccc(OC)c(=O)cc1[C@@H](NC(C)=O)CC2 ?
**A:** 61.2

**Q:** And the next one, NNC(=O)c1ccncc1 ?
**A:** 68.8

**Q:** Another compound to look at: COC1=CC(=O)C[C@@H](C)[C@]12Oc1c(Cl)c(OC)cc(OC)c1C2=O
**A:** 61.8

**Q:** Now this one: CCOC(=O)CCC(=O)O[C@H]1[C@H](O[C@@H]2[C@@H](C)[C@H](O[C@H]3C[C@@](C)(OC)[C@@H](O)[C@H](C)O3)[C@@H](C)C(=O)O[C@H](CC)[C@@](C)(O)[C@H](O)[C@@H](C)C(=O)[C@H](C)C[C@@]2(C)O)O[C@H](C)C[C@@H]1N(C)C [ERYTHROMYCIN ETHYLSUCCINATE]
**A:** 66.4

**Q:** Here is the next compound: NC(N)=Nc1nc(CSCCC(N)=NS(N)(=O)=O)cs1
**A:** 65.4

**Q:** Also need O=C(CCCN1CCC(O)(c2ccc(Cl)cc2)CC1)c1ccc(F)cc1 , thanks.
**A:** 64.8

**Q:** // next record C[C@@H]1C[C@H]2[C@@H]3CCC4=CC(=O)C=C[C@]4(C)[C@@]3(F)[C@@H](O)C[C@]2(C)[C@@]1(O)C(=O)CO
**A:** 67.2

**Q:** Try this compound too: CN(C)CCCN1c2ccccc2CCc2ccccc21
**A:** 83.4

**Q:** Further, for CCCNC(=O)NS(=O)(=O)c1ccc(Cl)cc1 [CHLORPROPAMIDE] ?
**A:** 71.8

**Q:** And what about the compound CC/C(=C(\c1ccccc1)c1ccc(OCCN(C)C)cc1)c1ccccc1 ?
**A:** 76.2

**Q:** Try CC1=C(/C=C/C(C)=C/C=C/C(C)=C/CO)C(C)(C)CCC1 next.
**A:** 71.8

**Q:** What about this compound? CN(C)CCCN1c2ccccc2CCc2ccc(Cl)cc21
**A:** 73.4

**Q:** Note, next up: CCOc1ccc(NC(=O)CC(C)O)cc1 (stereo not drawn)
**A:** 72.2

**Q:** And the next one, CN(C)CCN(Cc1cccs1)c1ccccn1 ?
**A:** 71.8

**Q:** Entry COc1ccc2[nH]c([S+]([O-])Cc3ncc(C)c(OC)c3C)nc2c1 (stereo not drawn) please
**A:** 62.2

**Q:** # repeat for CN1C(=O)CN=C(c2ccccc2)c2cc(Cl)ccc21
**A:** 58.4

**Q:** Next compound up: CC(C)OC(=O)C(C)(C)Oc1ccc(C(=O)c2ccc(Cl)cc2)cc1 [FENOFIBRATE]
**A:** 77.6

**Q:** Next compound up: Cc1ccc(C)c(OCCCC(C)(C)C(=O)O)c1
**A:** 74.6

* * *

Organism: Rattus norvegicus
measurement_protocol: Open TG-GATES - Regimen: Single
Format: toxicity, organism-based, Sprague-Dawley
Set-up: regimen Single, gender Male, age 6 weeks
particulars: in vivo, po, 0 mg/kg, 9 h, tissue Plasma, route gavage, dose level Control
measured_quantity: BUN (mg/dL)
Number in mg/dL, nothing else.

**Q:** BUN for CC/C(=C(\c1ccccc1)c1ccc(OCCN(C)C)cc1)c1ccccc1 ?
**A:** 10.2

**Q:** And for NNC(=O)c1ccncc1 ?
**A:** 9.6

**Q:** Field entry: COC1=CC(=O)C[C@@H](C)[C@]12Oc1c(Cl)c(OC)cc(OC)c1C2=O
**A:** 11

**Q:** Entry CC1=C(/C=C/C(C)=C/C=C/C(C)=C/CO)C(C)(C)CCC1 please
**A:** 10

**Q:** What about CCOc1ccc(NC(=O)CC(C)O)cc1 (stereo not given) ?
**A:** 9.4

**Q:** And what about the compound CN1C(=O)CN=C(c2ccccc2)c2cc(Cl)ccc21 ?
**A:** 10.6

**Q:** Repeat for the following compound: CC(C)OC(=O)C(C)(C)Oc1ccc(C(=O)c2ccc(Cl)cc2)cc1 [FENOFIBRATE]
**A:** 8.4

**Q:** Note, next up: O=C(CCCN1CCC(O)(c2ccc(Cl)cc2)CC1)c1ccc(F)cc1
**A:** 12.2

**Q:** Next up: CCCNC(=O)NS(=O)(=O)c1ccc(Cl)cc1 [CHLORPROPAMIDE]
**A:** 8.4

**Q:** How about this compound: CN(C)CCN(Cc1cccs1)c1ccccn1
**A:** 11.2
